assay: Metabolic stability in rat liver microsomes assessed as intrinsic clearance measured upto 60 mins in presence of NADPH by LC/MS-MS analysis; type: ADME, Microsome; conditions: read-out: CLH
Each entry below carries its recorded microsomal CLint.
Experimental Readout: microsomal CLint (µL/min/mg)

Compound: CONC(=O)/C(=C/n1cnc(-c2cc(C(F)(F)F)cc(C(F)(F)F)c2)n1)c1cncnc1
Measured Number: 7.2
--
Compound: NC(=O)/C(=C/n1cnc(-c2cc(C(F)(F)F)cc(C(F)(F)F)c2)n1)c1cncnc1 [ELTANEXOR]
Measured Number: 15.5

###

system: MM1.S; experiment: Antiproliferative activity against human MM1.S cells assessed as inhibition of cell growth incubated for 72 hrs by celltiter-glo assay; assay type: functional, cell-based
Each entry below carries its recorded IC50.

Smiles String: NC(=O)/C(=C/n1cnc(-c2cc(C(F)(F)F)cc(C(F)(F)F)c2)n1)c1ccc(F)nc1
Tested System: MM1.S
U: nM
IC50: 1470

Smiles String: NC(=O)/C(=C/n1cnc(-c2cc(C(F)(F)F)cc(C(F)(F)F)c2)n1)c1c[nH]c2ccccc12
Tested System: MM1.S
U: nM
IC50: 313

Smiles String: O=C(NCc1ccccn1)/C(=C/n1cnc(-c2cc(C(F)(F)F)cc(C(F)(F)F)c2)n1)c1cncnc1
Tested System: MM1.S
U: nM
IC50: 1500

Smiles String: O=C(NNc1cnccn1)/C(=C/n1cnc(-c2cc(C(F)(F)F)cc(C(F)(F)F)c2)n1)c1cncnc1
Tested System: MM1.S
U: nM
IC50: 328

Smiles String: CONC(=O)/C(=C/n1cnc(-c2cc(C(F)(F)F)nc(C(F)(F)F)c2)n1)c1ccc(C)nc1
Tested System: MM1.S
U: nM
IC50: 207

Smiles String: NC(=O)/C(=C/n1ccc(-c2cc(C(F)(F)F)cc(C(F)(F)F)c2)n1)c1ccc(C(F)(F)F)nc1
Tested System: MM1.S
U: nM
IC50: 1920

Smiles String: N#Cc1ccc(/C(=C\c2cnn(-c3cc(C(F)(F)F)cc(C(F)(F)F)c3)c2)C(N)=O)cn1
Tested System: MM1.S
U: nM
IC50: 1410

Smiles String: CCONC(=O)/C(=C/n1cnc(-c2cc(C(F)(F)F)cc(C(F)(F)F)c2)n1)c1cncnc1
Tested System: MM1.S
U: nM
IC50: 111

###

assay: Cmax in male Sprague-Dawley rat at 15 mg/kg, po measured upto 30 hrs by LC-MS/MS analysis; type: ADME, organism-based; conditions: in vivo
Experimental Readout: Cmax (ng/mL)

Smiles String: CONC(=O)/C(=C/n1cnc(-c2cc(C(F)(F)F)cc(C(F)(F)F)c2)n1)c1cncnc1
U: ng/mL
Measured Number: 793

###

assay: Metabolic stability in monkey liver microsomes assessed as intrinsic clearance measured upto 60 mins in presence of NADPH by LC/MS-MS analysis; format: ADME, Macaca mulatta, Microsome; details: rhesus monkey, read-out: CLH

Compound: NC(=O)/C(=C/n1cnc(-c2cc(C(F)(F)F)cc(C(F)(F)F)c2)n1)c1cncnc1 [ELTANEXOR]
microsomal CLint: 11.8 µL/min/mg

Compound: CONC(=O)/C(=C/n1cnc(-c2cc(C(F)(F)F)cc(C(F)(F)F)c2)n1)c1cncnc1
microsomal CLint: 8.6 µL/min/mg

###

Each entry below carries its recorded AUC at 6 h.
test: AUC in male Sprague-Dawley rat brain at 10 mg/kg, IG measured at 6 hrs by LC-MS/MS analysis; assay type: ADME, organism-based; details: po
Experimental Readout: AUC at 6 h (ng·h/mL)

Compound: CONC(=O)/C(=C/n1cnc(-c2cc(C(F)(F)F)cc(C(F)(F)F)c2)n1)c1cncnc1
Measured Number: 378
//
Compound: NC(=O)/C(=C/n1cnc(-c2cc(C(F)(F)F)cc(C(F)(F)F)c2)n1)c1cncnc1 [ELTANEXOR]
Measured Number: 83.3
